System: Malassezia pachydermatis (ATCC14522 strain)
Experiment: Malassezia otitis externa effect test (dog) (Test Example 3)
Format: in vivo, dog (Beagle)
Conditions: left ear, 500 ppm for 1 minute, 7 days after treatment
Known Improvement rate (%) of microbial count of a selection of compounds
Report as: number unit

These solved cases illustrate the format of a correct answer.
INSERT INTO results (compound, system_tested, property_measured, recorded_measurement) VALUES
  ('Cc1ccc(-c2nc(C#N)[nH]c2Cl)cc1 [Compound No. 1]', 'Malassezia pachydermatis (ATCC14522 strain)', 'Improvement rate (%) of microbial count', '96.7%'),
  ('Cc1ccc(-c2nc(C#N)[nH]c2Cl)cc1Cl [Compound No. 6]', 'Malassezia pachydermatis (ATCC14522 strain)', 'Improvement rate (%) of microbial count', '99.6%'),
  ('Cc1cc(-c2nc(C#N)[nH]c2Cl)ccc1Cl [Compound No. 7]', 'Malassezia pachydermatis (ATCC14522 strain)', 'Improvement rate (%) of microbial count', '95.8%');

Problem: Recall and state the measured Improvement rate (%) of microbial count for Cc1ccc(-c2nc(C#N)n(O)c2Cl)cc1 [Compound No. 9] .
Result: 98.2%
